Exercise: for every item that follows, state its recorded TGI.
# System: M14 melanoma
# PROCEDURE_SUMMARY: NCI tumour cell line growth inhibition, 48 h

Value of measured TGI for the entry CC12OC(C(=O)C13CCC3)C1C(=O)c3ccccc3C(=O)C12 (configuration not stated) : > 100 µM

What the record says about O=C(Nc1ccccc1O)c1ccc(CNC(=O)c2ccsc2Nc2ccnc(C(F)(F)F)c2)cc1 : TGI is 7.03 µM

compound COC1=CC(=O)C2=C(C1=O)[C@H]1CC[C@]3(C)[C@@H](OC(C)=O)CC[C@H]3[C@@H]1CC2 , TGI observed: > 100 µM

Item: Cn1c(=O)sc2cc(C(=S)N3CCOCC3)ccc21 | TGI: > 100 µM

So, C=C[C@@](C)(/C=C/c1ccc(O)cc1)CCC=C(C)C ? Its TGI was 35.3 µM

Reported TGI of COC(=O)c1c(OC)cc2cc3c(c(O)c2c1C)C(=O)C1(O)C(=O)C=C(OC)C(OC(=O)CC(C)N)=C1C3=O (configuration not stated) : > 100 µM

Reported TGI ( CC1=C(C(=O)CC(=O)C(=O)NC2C3CC4CC(C3)CC2C4)Sc2ccccc2N1 (configuration not stated) ) = > 100 µM

###

# Test system: CCRF-CEM leukemia
# PROCEDURE_SUMMARY: NCI tumour cell line growth inhibition, 48 h
QUANTITY_KIND: TGI

Briefly, TGI measured for O=C(CSc1nc2ccc(I)cc2c(=O)n1Cc1ccccc1)NN1C(=O)CCC1=O : > 100 µM

// sample CC(C)(C)OC(=O)N1CCc2c(n(C/C=C/c3ccccc3)[nH]c2=O)C1 , its TGI was > 100 µM

The measured TGI associated with NC(N)=N/N=C/c1c(-c2ccc(Cl)c([N+](=O)[O-])c2)nc2n1CCS2 reads 9.93 µM

###

Assignment: determine reported TGI for the given compounds.
# Test system: HT29 colon
# PROCEDURE_SUMMARY: NCI tumour cell line growth inhibition, 48 h

The reported TGI of the compound COC(=O)c1cc2c3c(ccc2[nH]1)N(C(=O)c1cc2c4c(ccc2[nH]1)N(C(=O)c1cc2c5c(ccc2[nH]1)N(C(N)=O)CC5)CC4)CC3 was > 100 µM

The reported value for O=[N+]([O-])c1ccc(NS(=O)(=O)C(F)(F)F)cc1 in terms of TGI is > 100 µM

TGI reading for Cc1cc(S(=O)(=O)O)c(NC(=O)c2oc3cc(O)ccc3c(=O)c2C)cc1Cl : > 100 µM

Just so you know, measured TGI for CC1=C2NCN(C)N=C2C(C#N)(C#N)C1(C#N)C#N came out at 51.3 µM

TGI recorded for this compound, COC(=O)C(NC(=O)CSc1nnc(COc2ccc(Cl)cc2)n1-c1ccccc1)C(C)C (configuration not stated) , is 44.5 µM

The value of TGI measured for the compound COc1ccc(-c2cc(/C=C/C(=O)c3cc(OC)c(OC)c(OC)c3)[nH]n2)cc1OC turned out to be 2.73 µM

TGI reported for this compound CC(=O)NC1=C(NCC(C)C)C(=O)c2ccccc2C1=O : > 100 µM

Memo: COc1ccc(NC(=O)c2sc3nc4c(cc3c2N)CCCC4)cc1 , reported TGI: 3.36 µM

Measured TGI, CO[P@]1(=O)O[C@@H](c2ccccc2)[C@H](O)[C@@]1(O)c1ccccc1 : > 100 µM

Per the records, this compound ( CCc1cccc(CC)c1/C=C/c1cncc(C(=O)NC)c1 ) has TGI equal to > 25 µM

TGI for COC(=O)n1c(C[P+](c2ccccc2)(c2ccccc2)c2ccccc2)cc2ccccc21 is 11.8 µM

Quick note, TGI for Oc1[nH]c2ccccc2c1/C=c1/cc2c(c(-c3ccc(C(F)(F)F)cc3)n1)=Nc1ccccc1-2 landed at 11.4 µM
